# Test system: NCI-H226 lung
# assay name: NCI tumour cell line growth inhibition, 48 h
value type: GI50

Known GI50 results, listed for orientation:
molecule=O=C1/C(=C/c2ccc(O)c([N+](=O)[O-])c2)CCC/C1=C\c1ccc(O)c([N+](=O)[O-])c1 reported_measurement="33.7 µM"
molecule=CCCCCNC(=O)[C@@H]1CCCN2C(=O)CC[C@H](NC(=O)[C@H](Cc3ccc(OP(=O)(O)O)cc3)NC(C)=O)C(=O)N12 reported_measurement="> 25 µM"
molecule="COC(=O)NC/C=C\\c1nc(CC/C=C\\C(=O)OC2CC3CC(=O)O[C@H](/C=C/CC(C)C)C[C@H]4CCC(C)C(C[C@H](OC)CC(C2)O3)O4)co1 (stereo partly drawn)" reported_measurement="12.9 µM"

Give recorded GI50. O=C(Nc1ccc(-n2cc(-c3ccncc3)c(-c3ccc(Cl)c(O)c3)n2)cc1)Nc1cc(C(F)(F)F)cc(C(F)(F)F)c1
2.45 µM

Give recorded GI50. N#CC1=C(N)NC(=S)NC12Nc1ccccc1O2 (stereo not drawn)
30.5 µM

Give recorded GI50. Cc1cc(C)c(O)c(CNCCCCCCNCc2cc(C)cc(C)c2O)c1
1.83 µM

Give recorded GI50. O=C(NC1CC1)c1ccc(-c2nc3ccc4[nH]ncc4c3c3c2CCCC3)cc1
3.41 µM

Give recorded GI50. CC1(C)NCCC[C@]2(C)[C@H]3C=CC4=C5C[C@](C)(CO)CC[C@]5(C)CC[C@@]4(C)[C@]3(C)CC[C@@H]12
4 µM
